Listed compounds paired with reported K app
- test: Apparent equilibrium constant for DNA binding (G-C)
- Format: ADME
observedProperty: K app (M⁻¹)

1) CN(C)CCNC(=O)c1ccc(NCCN(C)CCNc2ccc(C(=O)NCCN(C)C)c3nc4ccccc4cc23)c2cc3ccccc3nc12	7.2e+06
2) CN(C)CCNC(=O)c1ccc(NCCN(C)C)c2cc3ccccc3nc12	2.3e+08
3) CN(C)CCNC(=O)c1ccc(NCCN(C)CCNc2ccc(C(=O)NCCN(C)C)c3nc4ccccc4c(O)c23)c2c(O)c3ccccc3nc12	3.8e+07
4) COc1ccc2nc3c(C(=O)NCCN(C)C)ccc(NCCN(C)CCNc4ccc(C(=O)NCCN(C)C)c5nc6ccc(OC)cc6c(O)c45)c3c(O)c2c1	8.8e+06
5) COc1ccc2nc3c(C(=O)NCCN(C)C)ccc(NCCCN(C)CCCNc4ccc(C(=O)NCCN(C)C)c5nc6ccc(OC)cc6c(O)c45)c3c(O)c2c1	1.4e+08
6) CN(C)CCNC(=O)c1ccc(NCCCN(C)CCCNc2ccc(C(=O)NCCN(C)C)c3nc4ccccc4c(O)c23)c2c(O)c3ccccc3nc12	7.5e+07
7) CN(C)CCNC(=O)c1ccc(NCCCN(C)CCCNc2ccc(C(=O)NCCN(C)C)c3nc4ccccc4cc23)c2cc3ccccc3nc12	9.4e+07
